- System: CSK;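 further: KINOMEscan kinase panel screen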
- Condition Notes: concentration: 1 μM, replicates: in singlicate; n = 1
Kindly state %Inh for each of the entries shown.
One number for each entry, in %.

// solved cases for %Inh follow
1. Cl.NC(=O)c1cccc(Nc2nccc(Nc3ccc(Oc4c(Cl)cccc4Cl)c(Cl)c3)n2)c1; 0
2. COc1cc(Nc2nccc(N3CCC(NC(=O)Nc4cccc(C(C)=O)c4)C3)n2)cc(OC)c1OC (centres unmarked); 0
3. CN(c1ccc(NC(=O)Nc2cc(C(F)(F)F)ccc2F)cc1)c1ccnc(Nc2ccc(S(N)(=O)=O)cc2)n1; 9
4. CN(C)S(=O)(=O)c1cc(-c2ccc3nccc(-c4cccc(S(N)(=O)=O)c4)c3c2)cnc1N; 0

Could I get %Inh for every one of these entries?
1. CCS(=O)(=O)c1ccc(OC)c(Nc2nccc(-c3c(-c4cccc(NC(=O)c5c(F)cccc5F)c4)nn4ncccc34)n2)c1
2. Oc1cc(Nc2ccnc3cc(I)ccc23)ccc1F
3. COCCOCCOc1cc2ncc3c4ccc(C#N)cc4[nH]c3c2cc1OC
4. COc1cc(Nc2ncc3c(C)nc(-c4cc5ccccc5[nH]4)n3n2)cc(OC)c1OC

17
0
10
13

Would you mind listing %Inh for each of the following compounds?
1. Nc1n[nH]c2cnc(-c3ccccc3)cc12
2. CC(C)c1nc(-c2cccc(NS(=O)(=O)c3c(F)cccc3F)c2F)c(-c2ccnc(Nc3ccc(N4CCOCC4)nc3)n2)s1
3. Cc1ccc(C(=O)Nc2ccc(Nc3ccnc4cc(-c5nccs5)ccc34)cc2O)cc1.Cl
4. O=C(Nc1ccccc1F)NC1CCN(c2ccnc(Nc3ccc(F)cc3)n2)CC1
5. CCCCc1nn2ncccc2c1-c1ccnc(Nc2ccc(N3CCN(C)CC3)cc2)n1
6. CSc1cccc2c(-c3ccncn3)c(-c3ccc(F)cc3)nn12
7. COC(=O)Nc1nc2ccc(Oc3ccc(NC(=O)Nc4cc(C(F)(F)F)ccc4F)cc3)cc2n1C.Cl

0
98
30
0
7
0
0

Give measured %Inh for every item shown.
1. CCc1ccc(-c2ccc3c(c2)-c2c(cnn2C)S(=O)(=O)N3C)cc1
2. CNC(=O)c1ccccc1Nc1nc(Nc2ccc(N3CCOCC3)cc2)ncc1Cl.Cl
3. CC(C)(C)c1ccc2nccc(Nc3cccc(O)c3)c2c1
4. COC(=O)Nc1nc2cc(Oc3ccc(NC(=O)Nc4cc(C(F)(F)F)ccc4F)cn3)ccc2[nH]1.Cl.Cl
5. O=C(Nc1cccc(Oc2ccc3nc(NC(=O)C4CC4)cn3n2)c1)c1ccccc1C(F)(F)F
6. Cc1ccc(C(=O)N2CC[C@@H](O)C2)cc1-n1c(C)cc(OCc2ccc(F)cc2F)c(Br)c1=O
7. COc1cccc(C2=C(Nc3ccc(Cl)c(C(=O)O)c3)C(=O)NC2=O)c1

1. 0
2. 85
3. 0
4. 0
5. 11
6. 0
7. 0

I would be grateful if you could share the reported %Inh for "C[C@@H](Oc1cc(-n2cnc3cc(-c4ccnc(NCCS(C)(=O)=O)c4)ccc32)sc1C(N)=O)c1ccccc1Cl" . 0
